- PROCEDURE SUMMARY: blockers of Ca2+-induced mitochondrial swelling – biochemical, isolated mouse mitochondria, absorbance, primary screen (AID 602449);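 also: 0% = DMSO wells given calcium and 100% = 1 mM EGTA wells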
- STUDY CONDITIONS: 30 min, at 10 µM
Screen size: about 360,000 compounds; about 5,000 (1.4%) were called active.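 The calls were made as follows: active = inhibition of 50% or more, scaled per plate between neutral and stimulator controls; inactive = the rest.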 Only a selection was taken, and actives are over-represented in it overall.
Possible outcomes: active, inactive

[[record]]
compound = "CCCC(C(=O)OCCN(CC)CC)(c1ccccc1)c1ccccc1"
answer_label = "active"

[[record]]
compound = "CC(=O)Oc1ccc(OC(C)=O)c2c1C1C=CC2CC1"
answer_label = "inactive"

[[record]]
compound = "CS(=O)(=O)N(CC(=O)N1CCOCC1)c1cccc(Cl)c1Cl"
answer_label = "inactive"

[[record]]
compound = "CC1C/C(=N/NC(=O)c2cccs2)CC(C)(C)C1 (stereo unspecified)"
answer_label = "inactive"

[[record]]
compound = "CCN(CC)CCNCC(=O)Nc1ccc(Oc2ccccc2)cc1"
answer_label = "inactive"

[[record]]
compound = "CCN(CC)CCOC(=O)c1ccc(NC(=O)CNC(=O)c2ccccc2)cc1"
answer_label = "inactive"


* * *

- PROCEDURE SUMMARY: blockers of Ca2+-induced mitochondrial swelling – biochemical, isolated mouse mitochondria, absorbance, primary screen (AID 602449);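 also: 0% = DMSO wells given calcium and 100% = 1 mM EGTA wells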
- STUDY CONDITIONS: 30 min, at 10 µM, active compounds read high
In all, about 360,000 compounds went through this assay and about 5,000 (1.4%) were called active. This is one part of a sample in which actives are shown more often than they occur.
REPORTED PROPERTY: inhibition (%)

[[record]]
compound = "CCCS(=O)(=O)NC(=O)C1(C)CCCN(C(=O)c2ccnc(Cl)c2)C1 (stereo unspecified)"
reported_property = "inhibition"
readout_units = "%"
recorded_number = -0.3

[[record]]
compound = "CCC(c1nnc(SCC(=O)NNC(=O)c2ccccc2)n1Cc1ccccc1)N(C)C (stereo unspecified)"
reported_property = "inhibition"
readout_units = "%"
recorded_number = 1.2

[[record]]
compound = "CC1(c2ccc3ccccc3c2)NC(=O)N(CC(N)=O)C1=O (stereo unspecified)"
reported_property = "inhibition"
readout_units = "%"
recorded_number = 1

[[record]]
compound = "O=C(C[C@H]1C[C@@H]2c3cc(NC(=O)C4CCC4)ccc3O[C@@H]2[C@H](CO)O1)NC1CCCCC1"
reported_property = "inhibition"
readout_units = "%"
recorded_number = -0.5

[[record]]
compound = "O=C(NCCc1ccccc1)C1CC1"
reported_property = "inhibition"
readout_units = "%"
recorded_number = -0.4

[[record]]
compound = "S=C(NCCc1ccccc1)NCc1ccccc1Cl"
reported_property = "inhibition"
readout_units = "%"
recorded_number = 69.8

[[record]]
compound = "Cc1ccc(S(=O)(=O)N(Cc2ccccc2)c2ccccn2)cc1[N+](=O)[O-]"
reported_property = "inhibition"
readout_units = "%"
recorded_number = 0.2

[[record]]
compound = "Cc1cc(F)ccc1NC(=S)NCCc1ccccc1"
reported_property = "inhibition"
readout_units = "%"
recorded_number = 0

[[record]]
compound = "CN(C)CCn1c2c(c(SCC(=O)NCc3ccccc3)nc1=O)CCC2"
reported_property = "inhibition"
readout_units = "%"
recorded_number = -1

[[record]]
compound = "CCN(CC)c1ccc(NC(=O)c2ccc(=O)[nH]c2)cc1S(=O)(=O)Nc1ccc(OC)cc1"
reported_property = "inhibition"
readout_units = "%"
recorded_number = -0.4

[[record]]
compound = "CC1CCN(c2ccc(-c3ccc(NC(=O)c4ccco4)cc3)nn2)CC1"
reported_property = "inhibition"
readout_units = "%"
recorded_number = 0.3


* * *

- PROCEDURE SUMMARY: blockers of Ca2+-induced mitochondrial swelling – biochemical, isolated mouse mitochondria, absorbance, primary screen (AID 602449);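 also: 0% = DMSO wells given calcium and 100% = 1 mM EGTA wells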
- STUDY CONDITIONS: 30 min, at 10 µM, active compounds read high
Among all 360,000 compounds or so, about 5,000 (1.4%) were called active. This excerpt belongs to a sample that is enriched for actives.
Short version: inhibition at least 20% is fulfilled, less is not fulfilled.

[[record]]
compound = "Cc1ccc(S(=O)(=O)N(C)C)cc1NC(=O)COC(=O)/C=C/c1cccs1"
answer_label = "not fulfilled"

[[record]]
compound = "Cc1nc(N2CCOCC2)c2c(C)c(C(=O)Nc3ccc(C(F)(F)F)cc3)sc2n1"
answer_label = "fulfilled"

[[record]]
compound = "Cc1nc(N2CCC(C)CC2)c2c(C)c(C(=O)Nc3cc(F)ccc3C)sc2n1"
answer_label = "not fulfilled"

[[record]]
compound = "Cc1nc(N2CCN(c3ccccn3)CC2)c2c(C)c(C(=O)Nc3ccc(F)c(Cl)c3)sc2n1"
answer_label = "not fulfilled"

[[record]]
compound = "COc1ccc(CNc2nccs2)cc1"
answer_label = "not fulfilled"

[[record]]
compound = "CCC(C)NC(=O)N[C@@H](CCSC)C(=O)O (stereo partly specified)"
answer_label = "not fulfilled"


* * *

- PROCEDURE SUMMARY: blockers of Ca2+-induced mitochondrial swelling – biochemical, isolated mouse mitochondria, absorbance, primary screen (AID 602449);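 also: 0% = DMSO wells given calcium and 100% = 1 mM EGTA wells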
- STUDY CONDITIONS: 30 min, at 10 µM
In all, about 360,000 compounds went through this assay and about 5,000 (1.4%) were called active.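 How the source made its calls: active means inhibition of 50% or more, scaled per plate between neutral and stimulator controls; inactive means the rest.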 This excerpt belongs to a sample that is enriched for actives.
Possible outcomes: active, inactive

[[record]]
molecule = "COc1cc(CCC(=O)Nc2ccncc2Cl)cc(OC)c1OC"
answer_label = "inactive"

[[record]]
molecule = "COc1ccc(CC(=O)Nc2ccccc2NC(=O)c2ccco2)cc1OC"
answer_label = "inactive"

[[record]]
molecule = "C=CCC1(CC=C)CCCN1C(=O)c1cc(COc2ccc(-n3cncn3)cc2)on1"
answer_label = "active"

[[record]]
molecule = "CCCC(=O)N1CCC1(C)C(=O)Nc1ccc(-n2cncn2)cc1 (stereo not given)"
answer_label = "inactive"

[[record]]
molecule = "COc1ccc(CC(=O)NC2CCSc3ccccc32)cc1OC (stereo not given)"
answer_label = "inactive"

[[record]]
molecule = "COc1ccc(C(=O)O)cc1S(=O)(=O)NC1CCN(Cc2ccccc2)CC1"
answer_label = "inactive"

[[record]]
molecule = "COc1ccc(CCNC(=O)COC(=O)Cc2cc(OC)c(OC)c(OC)c2)cc1"
answer_label = "inactive"

[[record]]
molecule = "COC(=O)[C@@]12C[C@@H](CC(=O)NCCCCc3ccccc3)C(=O)N(Cc3ccccc3)C1=CCC(C)(C)C2"
answer_label = "inactive"

[[record]]
molecule = "COc1ccc(CC(=O)Nc2nc(-c3ccc(F)c(F)c3)cs2)cc1OC"
answer_label = "active"

[[record]]
molecule = "O=C(OC1CC2CC1[C@H]1CCCCN1C2=O)N1CCOCC1 (stereo not given in full)"
answer_label = "inactive"


* * *

- PROCEDURE SUMMARY: blockers of Ca2+-induced mitochondrial swelling – biochemical, isolated mouse mitochondria, absorbance, primary screen (AID 602449);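 also: 0% = DMSO wells given calcium and 100% = 1 mM EGTA wells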
- STUDY CONDITIONS: 30 min, at 10 µM, active compounds read high
The campaign covered roughly 360,000 compounds. About 5,000 (1.4%) were called active. The sample as a whole holds a higher share of actives than the screen did.
REPORTED PROPERTY: inhibition (%)

[[record]]
compound = "Clc1ncn(CCOc2ccccc2)c1Cl"
recorded_number = -3.1

[[record]]
compound = "COc1cccc(C(O)c2nc3ccccc3n2C)c1 (stereo unspecified)"
recorded_number = -0.2

[[record]]
compound = "C=CCOc1ccccc1CNn1c(C)n[nH]c1=S"
recorded_number = -0.7

[[record]]
compound = "COc1cccc(-c2cnc(OC(C)(C)C)nc2OC(C)(C)C)c1"
recorded_number = -0.3

[[record]]
compound = "O=C(Nc1cccc(Br)c1)C1CC(=O)N(C2CCCC2)C1 (stereo unspecified)"
recorded_number = -0.1

[[record]]
compound = "COc1cccc(C(O)c2ncc(-c3ccc4ccccc4c3)[nH]2)c1 (stereo unspecified)"
recorded_number = -0.1


* * *

- PROCEDURE SUMMARY: blockers of Ca2+-induced mitochondrial swelling – biochemical, isolated mouse mitochondria, absorbance, primary screen (AID 602449);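 also: 0% = DMSO wells given calcium and 100% = 1 mM EGTA wells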
- STUDY CONDITIONS: 30 min, at 10 µM
Hit rate of the full screen: of about 360,000 compounds, about 5,000 (1.4%) were called active.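 The calls were made as follows: active = inhibition of 50% or more, scaled per plate between neutral and stimulator controls; inactive = the rest.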 The list comes from a sample in which actives are over-represented; it also holds close analogues and randomly drawn compounds.
Possible outcomes: TRUE = active, FALSE = inactive

[[record]]
compound = "CC(=O)Nc1ccc(NS(=O)(=O)c2cc(C)sc2C)cc1"
answer_label = "FALSE"

[[record]]
compound = "Cn1nccc1C(=O)NC1CCCc2c1cnn2-c1ccccc1F (centres undefined)"
answer_label = "TRUE"

[[record]]
compound = "O=C1c2ccccc2C(Nc2ccc3c(c2)OCCO3)N1Cc1ccco1 (centres undefined)"
answer_label = "FALSE"

[[record]]
compound = "O=C(c1ccc(Br)o1)N(c1ccccn1)C1CCCCC1"
answer_label = "FALSE"

[[record]]
compound = "CN(Cc1ccc(F)cc1Cl)S(=O)(=O)c1cccs1"
answer_label = "FALSE"

[[record]]
compound = "CCOC(=O)N1CCN(C(=O)c2ccc(CN(c3ccc(C)c(C)c3)S(C)(=O)=O)cc2)CC1"
answer_label = "FALSE"

[[record]]
compound = "COc1ccc(CCN=C2SCC(=O)N2C)cc1OC"
answer_label = "FALSE"

[[record]]
compound = "COc1ccc(-c2onc(C)c2-c2ccc3c(c2)OCCO3)c(O)c1"
answer_label = "FALSE"

[[record]]
compound = "Clc1ccc(C2=CSC3=Nc4cccc5cccc(c45)N23)cc1"
answer_label = "FALSE"

[[record]]
compound = "CC(=O)c1cccc(NC(=O)c2cc(C)nn2-c2ccccc2)c1"
answer_label = "FALSE"

[[record]]
compound = "CC1=C(C)CC(C(=O)NC(C)CCc2ccccc2)C(C(=O)O)C1 (centres undefined)"
answer_label = "FALSE"

[[record]]
compound = "CCOC(=O)C1(Cc2ccc(O)cc2)NC(c2ccccc2F)C2C(=O)N(C)C(=O)C21 (centres undefined)"
answer_label = "FALSE"

[[record]]
compound = "Cc1ccc(NC(=O)Nc2cc(-c3ccccc3)nn2C)cc1Cl"
answer_label = "TRUE"

[[record]]
compound = "Cc1nn(C)cc1CNC(=O)Nc1ccc(Cl)cc1"
answer_label = "TRUE"

[[record]]
compound = "Cc1c(C(=O)NCCN2C(=O)S/C(=C\\c3cccs3)C2=O)cccc1[N+](=O)[O-]"
answer_label = "FALSE"

[[record]]
compound = "CCNCCC(=O)N1c2ccccc2Sc2ccc(NC(=O)OCC)cc21"
answer_label = "TRUE"

[[record]]
compound = "Cc1cc(NC(=O)Nc2ccc(Cl)cc2)n(-c2ccccc2)n1"
answer_label = "TRUE"

[[record]]
compound = "COC(=O)c1ccc(C(=O)NC2CC(C)(C)Cc3c2cnn3-c2ccc(F)cc2)nc1 (centres undefined)"
answer_label = "FALSE"

[[record]]
compound = "CCc1cc(C(=O)OC)c(NC(=O)CC2Sc3ccc(C(F)(F)F)cc3NC2=O)s1 (centres undefined)"
answer_label = "FALSE"

[[record]]
compound = "CCOC(=O)Nc1ccc2c(c1)N(C(=O)CCCl)c1ccccc1[S@]2=O"
answer_label = "FALSE"

[[record]]
compound = "Cc1ccc(C(=O)Nc2c(-c3ccccc3)[nH][nH]c2=O)cc1"
answer_label = "FALSE"

[[record]]
compound = "O=C(O)c1cc(S(=O)(=O)N(Cc2ccccc2)c2cccc(C(F)(F)F)c2)ccc1Cl"
answer_label = "FALSE"

[[record]]
compound = "Cc1c(Cl)cccc1NC(=O)[C@@]1(CC(=O)O)CC(/C=C/c2ccccc2)=NO1"
answer_label = "FALSE"

[[record]]
compound = "CC(=O)OC1CCC2C3CCC4=C(CC(F)C(=O)C4)C3CCC12C (centres undefined)"
answer_label = "FALSE"

[[record]]
compound = "COc1ccc(Cl)cc1C(=O)NNC(=S)NC1CCCC1"
answer_label = "FALSE"

[[record]]
compound = "COc1cc(C(=O)NCc2ccc3c(c2)cc(C)n3C)cc(OC)c1OC"
answer_label = "FALSE"

[[record]]
compound = "Cc1nn(C)cc1C(=O)NNC(=S)Nc1ccc(Cl)cc1"
answer_label = "FALSE"

[[record]]
compound = "CCCOc1ccc(Cc2c(Cl)nc(SC)nc2NC)cc1"
answer_label = "TRUE"

[[record]]
compound = "O=C(O)c1cc2c(cc1NC(=O)c1c(F)cccc1Cl)OCCCO2"
answer_label = "FALSE"

[[record]]
compound = "CC1=C(C(=O)NC2CC(C)(C)Cc3c2cnn3-c2ccc(C)cc2)OCCO1 (centres undefined)"
answer_label = "FALSE"

[[record]]
compound = "COc1ccc(NC(=O)c2sc(=O)n(Cc3ccc(S(=O)(=O)N(C)C)cc3)c2C)cc1"
answer_label = "FALSE"

[[record]]
compound = "CCOC(=O)N1CCN(C(=O)c2ccc3c(c2)N(Cc2ccc(C)cc2)CCS3)CC1"
answer_label = "TRUE"

[[record]]
compound = "O=C(CCN1C(=O)/C(=C/c2cccs2)SC1=S)NNC(=O)c1cccc(O)c1"
answer_label = "TRUE"

[[record]]
compound = "CCOc1ccc(S(=O)(=O)Nc2nccs2)cc1"
answer_label = "FALSE"

[[record]]
compound = "Cc1ccc(-c2cc(C(=O)NCc3cn(C)nc3C)c3cc(Br)ccc3n2)cc1"
answer_label = "FALSE"

[[record]]
compound = "CC1CCN(C2=NC(=O)/C(=C/c3cn[nH]c3-c3ccccc3)S2)CC1"
answer_label = "FALSE"

[[record]]
compound = "c1ccc2c(c1)CSc1sccc1C2=C1CCNCC1"
answer_label = "TRUE"

[[record]]
compound = "O=C(NNc1ccccc1Cl)C(O)(c1cccc(C(F)(F)F)c1)c1cccc(C(F)(F)F)c1"
answer_label = "TRUE"

[[record]]
compound = "CCOC(=O)Nc1ccc2c(c1)N(C(=O)CCN1CCN(CCO)CC1)c1ccccc1CC2"
answer_label = "FALSE"

[[record]]
compound = "Cc1cc(C(=O)NCCc2ccc(Cl)cc2)n(-c2ccccc2)n1"
answer_label = "FALSE"

[[record]]
compound = "COC(=O)/C(C#N)=C/c1occc1C"
answer_label = "FALSE"

[[record]]
compound = "Cc1cc(C)c(C#N)c(SCC(=O)N(CC(C)C)C2CCS(=O)(=O)C2)n1 (centres undefined)"
answer_label = "FALSE"

[[record]]
compound = "O=C(Nc1ccc(Cl)c(Cl)c1)N1CC=C(c2ccccc2)CC1"
answer_label = "FALSE"

[[record]]
compound = "O=c1c(-c2ccc3c(c2)OCCO3)c(C(F)(F)F)oc2cc(O)cc(O)c12"
answer_label = "TRUE"

